Protocol Text: Octanol-buffer partition coefficient, log D of the compound after 30 mins by shake flask method at pH 7.4
Attribute Measured: logD at 0.5 h

As a guide, the following entries are already answered.
{"Entry Smiles": "Cc1ccc(-c2cccc(-c3nn[nH]n3)c2)cc1", "Attribute Measured": "logD at 0.5 h", "Value Reported": 1.3}
{"Entry Smiles": "N#Cc1cccc(-c2cccc(-c3nn[nH]n3)c2)c1", "Attribute Measured": "logD at 0.5 h", "Value Reported": 0.7}

Now consider a different compound.
Value lookup for logD at 0.5 h; key = N#Cc1cccc(-c2cccc(C(=O)O)c2)c1 0.3

====

Protocol Text: in vitro
Experimental Setup: human, Caco-2
Description: Efflux ratio of apparent permeability of the compound from basal to apical to apical to basal side of human Caco2 cells at 1 uM after 60 mins by LCMS analysis
Attribute Measured: efflux ratio at 1 h, 1 µM
Enter the number alone.

Item under review: N#Cc1cccc(-c2cccc(-c3nn[nH]n3)c2)c1 . Reported efflux ratio at 1 h, 1 µM? 255
